Biological target: TRPV3 (Homo sapiens)
Sequence (Q8NET8 whole entry): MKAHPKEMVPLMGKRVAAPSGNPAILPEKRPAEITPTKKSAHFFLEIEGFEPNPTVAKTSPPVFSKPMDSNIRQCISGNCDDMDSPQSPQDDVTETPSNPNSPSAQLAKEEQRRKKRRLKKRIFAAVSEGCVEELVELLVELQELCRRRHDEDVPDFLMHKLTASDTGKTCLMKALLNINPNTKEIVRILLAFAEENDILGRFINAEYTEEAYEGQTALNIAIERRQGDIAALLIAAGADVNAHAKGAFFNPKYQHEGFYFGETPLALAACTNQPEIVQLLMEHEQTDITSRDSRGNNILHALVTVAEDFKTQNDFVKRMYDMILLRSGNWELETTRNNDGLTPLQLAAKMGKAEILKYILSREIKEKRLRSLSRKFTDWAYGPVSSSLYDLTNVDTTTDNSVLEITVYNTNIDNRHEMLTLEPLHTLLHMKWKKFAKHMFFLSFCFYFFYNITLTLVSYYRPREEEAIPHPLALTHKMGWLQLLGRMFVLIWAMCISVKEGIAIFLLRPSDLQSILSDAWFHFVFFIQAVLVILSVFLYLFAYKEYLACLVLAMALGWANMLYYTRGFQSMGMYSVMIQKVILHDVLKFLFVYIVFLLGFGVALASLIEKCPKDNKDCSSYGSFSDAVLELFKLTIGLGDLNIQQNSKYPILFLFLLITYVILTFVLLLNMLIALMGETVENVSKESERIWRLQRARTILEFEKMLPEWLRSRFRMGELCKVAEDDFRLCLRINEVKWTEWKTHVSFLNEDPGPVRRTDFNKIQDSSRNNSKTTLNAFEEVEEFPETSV
Test: whole-cell patch clamp, TRPV3-overexpressing HEK […], 2-APB-activated current
Measurement kind: pIC50
For clarity, pIC50 is expressed as the negative log10 of concentration in mol/L.

Ask: Fill blank: measured pIC50 of the compound CCc1c(O)c(O)c2c(c1O)C(=O)C(O)=C(O)C2=O is ____.
Reply: 5.68
